The reported measurements were obtained from ChEMBL document CHEMBL4513216.

# method_description: Toxicity liver stage against HepG2, at 10uM
# Type: cell-based
# Design: test concentration 10 uM, cell line HepG2-A16-CD81EGFP
# cond: human, HepG2-A16-CD81EGFP cells; read-out: INHIBITION
readout_name: cytotoxicity at 10 µM (%)
Please respond with the number in % and leave the unit unwritten.

Solved entries (count: 5):
{"compound": "O=C(NC1CC1)N1CCc2ncnc(-c3ccncc3)c2CC1", "cytotoxicity at 10 µM / %": -1.04}
{"compound": "COc1cccc(COCC(=O)N2CCN(CC(C)(C)O)CC2)c1", "cytotoxicity at 10 µM / %": -5.64}
{"compound": "Cc1ccc(NC(=O)NC(C)c2nc[nH]n2)cc1 (configuration not stated)", "cytotoxicity at 10 µM / %": -0.665}
{"compound": "O=C(C1CC1)N1CCC(C(=O)N2CCC(c3ccc(F)cc3)C2)CC1 (configuration not stated)", "cytotoxicity at 10 µM / %": -46.3}
{"compound": "CCn1cc2c(n1)C(COC)CN(C(=O)COc1ccccc1)C2 (configuration not stated)", "cytotoxicity at 10 µM / %": -2.88}

Complete the entry with cytotoxicity at 10 µM for CCc1nccn1C1CCCN(C(=O)c2csc(C3CC3)n2)C1 (configuration not stated)
-9.39

Complete the entry with cytotoxicity at 10 µM for CC(NCc1c(C(C)C)nn(C)c1N1CCOCC1)C(N)=O (configuration not stated)
-5.23

Complete the entry with cytotoxicity at 10 µM for Cc1oc2c(c1C(=O)N1CC[C@H](O)[C@]3(CCCO3)C1)CCCC2
2.75

---

# method_description: Toxicity liver stage against HepG2, at 10uM
# Assay type: cell-based
# Design: test concentration 10 uM, cell line HepG2-A16-CD81EGFP
# cond: human, HepG2-A16-CD81EGFP cells; read-out: INHIBITION
readout_name: cytotoxicity at 10 µM (%)
Please respond with the number in % and leave the unit unwritten.

Complete the entry with cytotoxicity at 10 µM for CCC(=O)Nc1ccc2c(ccn2CC(=O)N(CC)CC)c1
-12.2

Complete the entry with cytotoxicity at 10 µM for CO[C@H]1CN(Cc2nc3ccccc3n2C)CC[C@@]12CCCO2
2.5

Complete the entry with cytotoxicity at 10 µM for O=S(=O)(c1cccc(F)c1)N1C[C@H]2CC[C@@H](C1)N(Cc1ccccc1)C2
-3.03

Complete the entry with cytotoxicity at 10 µM for CCC(CC)NC(=O)c1ccc2c(c1)C(c1nc[nH]n1)CN2S(C)(=O)=O (stereo unspecified)
-138

Complete the entry with cytotoxicity at 10 µM for COc1c(CNCCNC(=O)c2cccs2)c(C)nn1C
-0.373

Complete the entry with cytotoxicity at 10 µM for CCOC(=O)C1(Cc2cccc(OC)c2)CCN(Cc2ccon2)CC1
2.61

Complete the entry with cytotoxicity at 10 µM for COc1ccc(F)c(-c2cc(O)nc(N)n2)c1
2.05

---

# method_description: Toxicity liver stage against HepG2, at 10uM
# Type: cell-based
# Design: test concentration 10 uM, cell line HepG2-A16-CD81EGFP
# cond: human, HepG2-A16-CD81EGFP cells; read-out: INHIBITION
readout_name: cytotoxicity at 10 µM (%)
Please respond with the number in % and leave the unit unwritten.

Solved entries (count: 4):
{"molecule": "CCS(=O)(=O)NCCCNc1cc(N2CCCC2CO)ncn1 (stereo unspecified)", "unit_symbol": "%", "cytotoxicity at 10 µM": 2.2}
{"molecule": "CCc1nsc(N2CCn3c(nnc3-c3ccccc3)C2)n1", "unit_symbol": "%", "cytotoxicity at 10 µM": 3.67}
{"molecule": "Cc1ccc(OCCCSC2=NCCN2)cc1", "unit_symbol": "%", "cytotoxicity at 10 µM": -9.66}
{"molecule": "CCOCCn1c(=O)[nH]c2cc(C(=O)N(C)Cc3nc(C)cs3)ccc21", "unit_symbol": "%", "cytotoxicity at 10 µM": -10.6}

Complete the entry with cytotoxicity at 10 µM for COc1ccccc1Cc1cncc(N2CC(C(=O)O)C2)n1
2.71

Complete the entry with cytotoxicity at 10 µM for CCCC(=O)NC(C(=O)OC)c1cc(F)ccc1F (stereo unspecified)
8.55

---

# method_description: Toxicity liver stage against HepG2, at 10uM
# Assay type: cell-based
# Design: test concentration 10 uM, cell line HepG2-A16-CD81EGFP
# cond: human, HepG2-A16-CD81EGFP cells; read-out: INHIBITION
Quick list: cytotoxicity at 10 µM per entry.
Please respond with the number in % and leave the unit unwritten.

Solved entries (count: 8):
{"compound": "CC(C)N(Cc1ccccn1)C(=O)CCC(=O)c1ccccc1", "cytotoxicity at 10 µM, %": 3.33}
{"compound": "COc1ccsc1C(=O)N1CCCC1c1c(C)nn(C)c1OC (configuration not stated)", "cytotoxicity at 10 µM, %": -0.561}
{"compound": "CCCN1CCCN(C(=O)C(CC)N2CCCC2=O)CC1 (configuration not stated)", "cytotoxicity at 10 µM, %": -6.17}
{"compound": "CNC(=O)CS(=O)(=O)C1CCN(S(=O)(=O)c2ccccc2Br)CC1", "cytotoxicity at 10 µM, %": -18.3}
{"compound": "CSC(C)CC(=O)N1CCC(n2ccnn2)CC1 (configuration not stated)", "cytotoxicity at 10 µM, %": -47.9}
{"compound": "CN(C)C(=O)CNC(=O)c1ccn(-c2ccc3ccccn23)n1", "cytotoxicity at 10 µM, %": 0.74}
{"compound": "Cc1cccc(NC(=O)Cn2ncc(SCC(N)=O)c(Cl)c2=O)c1C", "cytotoxicity at 10 µM, %": -15.7}
{"compound": "Cc1nc(CN2CCCC(N(C)CCCc3ccccc3)C2)no1 (configuration not stated)", "cytotoxicity at 10 µM, %": -0.704}

Complete the entry with cytotoxicity at 10 µM for Cc1nn(-c2ccccc2)cc1C(=O)N1CCCC(n2ccnc2C)C1 (configuration not stated)
-3.11

Complete the entry with cytotoxicity at 10 µM for CN(C(=O)c1ccncc1)c1ccccc1S(C)(=O)=O
7.39

Complete the entry with cytotoxicity at 10 µM for CNC(=O)CN1CCC2(CCCN(CC3CCOC3)C2)CC1 (configuration not stated)
-107

Complete the entry with cytotoxicity at 10 µM for Cc1nnsc1-c1nnc2sc(C3CCC3)nn12
-7.86

---

# method_description: Toxicity liver stage against HepG2, at 10uM
# Format: cell-based
# Set-up: test concentration 10 uM, cell line HepG2-A16-CD81EGFP
# cond: human, HepG2-A16-CD81EGFP cells; read-out: INHIBITION
readout_name: cytotoxicity at 10 µM (%)
Please respond with the number in % and leave the unit unwritten.

Solved entries (count: 6):
{"molecule": "CC(C)(C)CC(=O)NCC(=O)NCC(O)c1ccc2ccccc2c1 (stereo not drawn)", "unit_symbol": "%", "cytotoxicity at 10 µM": 9.73}
{"molecule": "CCOCCNC1(c2ccc(Cl)cc2)CCOCC1", "unit_symbol": "%", "cytotoxicity at 10 µM": -3.75}
{"molecule": "O=C(c1cc(F)ccc1F)C1CCN(C(=O)c2cccnc2O)CC1", "unit_symbol": "%", "cytotoxicity at 10 µM": -3.99}
{"molecule": "CC(c1ccncc1)N(CCN(C)C)C(=O)Nc1ccc(Cl)c(Cl)c1 (stereo not drawn)", "unit_symbol": "%", "cytotoxicity at 10 µM": 7.41}
{"molecule": "O=c1c2cn[nH]c2nc(SCCN2CCOCC2)n1-c1ccccc1", "unit_symbol": "%", "cytotoxicity at 10 µM": 0.219}
{"molecule": "Cc1nc(CN2CCOCC3(CCN(c4cnccn4)CC3)C2)cs1", "unit_symbol": "%", "cytotoxicity at 10 µM": 7.37}

Complete the entry with cytotoxicity at 10 µM for COc1ccccc1C(C)CC(=O)N1CCN(S(N)(=O)=O)CC1 (stereo not drawn)
-51.3

Complete the entry with cytotoxicity at 10 µM for Cc1nc(N2CCCC2)nc2c1CCN(C(=O)C(C)C)CC2
5.02

Complete the entry with cytotoxicity at 10 µM for COC(=O)NCC(=O)NCc1nn(-c2ccccc2)c2c1CCC2
-7.72

Complete the entry with cytotoxicity at 10 µM for Cc1nnc(CN2CCC3(CCC(=O)N(C4CC4)C3)CC2)o1
-6.68

Complete the entry with cytotoxicity at 10 µM for Cc1ccc(CN2CCc3c(nc4cc(C5CC5)nn4c3O)C2)s1
-3.69

Complete the entry with cytotoxicity at 10 µM for CCNC(=O)[C@@H]1C[C@@H](NC(=O)c2cc(C)on2)CN1Cc1ccccn1
-6.78

---

# method_description: Toxicity liver stage against HepG2, at 10uM
# Assay type: cell-based
# Design: test concentration 10 uM, cell line HepG2-A16-CD81EGFP
# cond: human, HepG2-A16-CD81EGFP cells; read-out: INHIBITION
readout_name: cytotoxicity at 10 µM (%)
Please respond with the number in % and leave the unit unwritten.

Solved entries (count: 6):
{"molecule": "C=C(C)CSc1nnc(CCNC(=O)OC(C)(C)C)o1", "unit_symbol": "%", "val": 8.94}
{"molecule": "COc1cc(N2CCC3(CC2)CC(N2CCN(C)CC2)CO3)ncn1 (configuration not stated)", "unit_symbol": "%", "val": -9.11}
{"molecule": "COCCC(=O)N1CCC2(CC1)CC(c1ccccc1)CN(C1CC1)C2 (configuration not stated)", "unit_symbol": "%", "val": -0.173}
{"molecule": "CCc1oc(C(=O)N[C@@H]2c3ccccc3C[C@@H]2O)cc1C", "unit_symbol": "%", "val": 0.243}
{"molecule": "CSCc1cccc(S(=O)(=O)NCCO)c1", "unit_symbol": "%", "val": -0.138}
{"molecule": "O=C(Nc1ccc(CC(=O)N2CCSCC2)cc1)NC1CCCC1", "unit_symbol": "%", "val": -7.01}

Complete the entry with cytotoxicity at 10 µM for Cc1cnn(CC2CCCCN2C(=O)Cc2csc(C)n2)c1 (configuration not stated)
2.26
